Please go through the items and note down their TGI.
- System: MOLT-4 leukemia
- experimental_details: NCI tumour cell line growth inhibition, 48 h
Where a SMILES comes first, the peptide text is derived from it. [ ]: non-standard residue; d: D form. The star is where a group is joined. Phe(2-OMe) = COc1ccccc1C[CH](N)C(=O)O; Cbz = O=C(OCc1ccccc1)*; OBn = c1ccc(CO*)cc1

Sample CCC(C)C1=NC(C(=O)N/C=C\c2c[nH]c3cc(Br)c(Br)cc23)(C(C)C)NC1=O (stereo not given) — what was its TGI? 30.3 µM

Sample CC1(C)CC(/C=C2/OC(=O)c3ccccc32)=C(C(N)=O)C(=O)O1 — what was its TGI? > 100 µM

Sample COC(=O)[C@@H](C)C[C@H](Cc1ccccc1)NC(=O)c1nc([C@@H](C[C@H](C(C)C)N(C)C(=O)[C@@H](NC(=O)[C@H]2CCCCN2C)C(C)C)OC(C)=O)sc1C(C)C — what was its TGI? 14.5 µM

Sample CCN1CCN(Cc2ccc(NC(=O)c3nc4ccc5[nH]ncc5c4c4c3CCCC4)cc2C(F)(F)F)CC1 — what was its TGI? 2.28 µM

Sample Cc1cc(C)nc(NS(=O)(=O)c2ccc(Nc3c4ccccc4nc4c(C(=O)N5CCN(CCO)CC5)ccc(Cl)c34)cc2)n1 — what was its TGI? > 100 µM

Sample O=C(O)C1(Cc2ccccc2)Cc2ccccc2C1 — what was its TGI? > 100 µM

Sample NC(N)=NS(=O)(=O)c1ccc(NC(=O)c2cccc3c(Nc4ccc(S(=O)(=O)N=C(N)N)cc4)c4ccccc4nc23)cc1 — what was its TGI? > 100 µM

Sample N#Cc1c(N)c2c(c(-c3ccccc3)c1-c1ccccc1)C(=O)N(NC(=S)Nc1ccccc1)C2=O — what was its TGI? > 100 µM

Sample CCNC(=O)OCC1C2=C(C(=O)C(C)=C(N)C2=O)N2CC3C(N3C)C12OC (stereo not given) — what was its TGI? > 76.3 µM

Sample CS(=O)(=O)c1ccc(NNc2cc(=O)[nH]c(=O)[nH]2)cc1 — what was its TGI? > 100 µM

Sample COC(=O)CNC(=O)CCSc1nnc(COc2ccc(Cl)cc2)n1-c1ccccc1 — what was its TGI? > 100 µM

Sample COC(=O)[C@]12CC[C@@H](C(=O)/C=C/c3cccnc3)[C@@H]1[C@H]1CC[C@@H]3[C@@]4(C)C/C(=C/c5cccnc5)C(=O)C(C)(C)[C@@H]4CC[C@@]3(C)[C@]1(C)CC2 — what was its TGI? 1.77 µM

Sample COc1cccc(-n2ncc3c(N/N=C/c4cccc(F)c4)ncnc32)c1 — what was its TGI? > 25 µM

Sample c1ccc(-c2cn3nc(N4CCOCC4)sc3n2)cc1 — what was its TGI? > 100 µM

Sample COC(=O)CC(=O)OC — what was its TGI? > 100 µM

Sample CCOP(=O)(OCC)/C(C#N)=C/c1nccn1C — what was its TGI? > 100 µM

Sample Nc1nnnn1NC(=O)NCCCl — what was its TGI? > 10 µM

Sample CCCCC(=O)Nc1ccc2cc(C(=O)OC)c(Cl)nc2n1 — what was its TGI? > 100 µM

Sample NC(Cc1cnc(I)[nH]1)C(=O)O (stereo not given) — what was its TGI? > 100 µM

Sample COC(=O)C(Cc1ccccc1OC)NC(=O)C(CC(=O)OCc1ccccc1)NC(=O)OCc1ccccc1 (stereo not given) (Cbz-Asp(OBn)-[Phe(2-OMe)]-OMe; configuration not given here) — what was its TGI? > 100 µM

Sample C=C(C)C12OC3(c4ccccc4)OC1C1C4OC4(CO)C(O)C4(O)C(=O)C(C)=CC4C1(O3)C(C)C2OC(=O)/C=C/C=C/c1ccccc1 (stereo not given) — what was its TGI? 2.34 µM

Sample CCOC(=O)/C=C(\C)c1ccc(Cl)cc1 — what was its TGI? > 100 µM

Sample CN(C)CCNC(=O)c1cccc(NC(=O)c2ccccc2)c1[N+](=O)[O-] — what was its TGI? > 100 µM

Sample O=[N+]([O-])c1ccc2c3c1[C@H]1O[C@H]1c1cccc(c1-3)[C@@H]1O[C@H]21 — what was its TGI? > 100 µM

Sample c1ccc([P+](c2ccccc2)(c2ccccc2)c2ccc([P+](c3ccccc3)(c3ccccc3)c3ccccc3)c3ccccc23)cc1 — what was its TGI? > 100 µM

Attribution: PubChem BioAssay (NCI)
